Reference source: ChEMBL document CHEMBL3244289

Consider the following molecules; for each one, report its MIC.
test system: Staphylococcus aureus; assay: Antibacterial activity against Staphylococcus aureus Smith by two-fold agar dilution method; type: functional
Please reply with the bare figure in µg/mL and do not write the unit itself.

// query MIC value for entry `C/C(=N\NC(N)=O)C1=C(O)[C@H](N)[C@@H]2Cc3c(c(O)c4c(O)c(C)ccc4c3C)C(=O)[C@]2(O)C1=O.Cl`
25

One more molecule: `C/C(=N\c1ccc(O)cc1)C1=C(O)[C@H](N)[C@@H]2Cc3c(c(O)c4c(O)c(C)ccc4c3C)C(=O)[C@]2(O)C1=O.Cl`
12.5

Same again, this time with `C/C(=N\NCCN(C)C)C1=C(O)[C@H](N)[C@@H]2Cc3c(c(O)c4c(O)c(C)ccc4c3C)C(=O)[C@]2(O)C1=O.Cl`
50

Entry to check: `C/C(=N\NC(N)=S)C1=C(O)[C@H](N)[C@@H]2Cc3c(c(O)c4c(O)c(C)ccc4c3C)C(=O)[C@]2(O)C1=O.Cl`
50
